For each entry below, report its pKi value.
- SYSTEM UNDER TEST: delta opioid receptor (Mus musculus)
- Construct: NG108-15 cell membranes were purchased from Applied Cell Sciences (Rockville, Md.); host or cells: NG108-15 cell membranes
- Sequence (P32300 whole entry): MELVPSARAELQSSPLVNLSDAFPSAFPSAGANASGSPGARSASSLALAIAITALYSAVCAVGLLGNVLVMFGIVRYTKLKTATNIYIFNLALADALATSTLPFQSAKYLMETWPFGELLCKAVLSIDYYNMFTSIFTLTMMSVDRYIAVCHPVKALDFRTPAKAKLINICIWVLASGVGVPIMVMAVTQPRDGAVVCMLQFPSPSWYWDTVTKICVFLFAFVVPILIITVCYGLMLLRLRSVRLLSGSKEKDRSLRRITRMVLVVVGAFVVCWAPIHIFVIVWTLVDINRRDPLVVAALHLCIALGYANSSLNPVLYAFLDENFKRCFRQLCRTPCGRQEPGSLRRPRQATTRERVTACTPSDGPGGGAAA
- ASSAY PROTOCOL: NG108-15, 24-well delta opioid receptor binding assay
# pKi: negative log10 of molar concentration; output just the value

Entry COc1ccc(Oc2nc(-c3cncnc3)ncc2NC[C@@H](N)CC(C)C)cc1 [Cpd 295] — recorded pKi = 7.19

Entry under test: Cc1ccc(Oc2nc(-c3cncc(C#N)c3)ncc2NC[C@@H]2CCCN2)cc1 [Cpd 147] . Its pKi was 9.40

For record COc1ccc(Oc2nc(-c3cncc(C#N)c3)ncc2NC[C@@H]2C[C@@H](F)CN2)cc1 [Cpd 134] the listed pKi is 10.32
